B1: Formin-binding protein 4, residues 200 to 261; numbered along this chain, Q8N3X1 (parent)
chain: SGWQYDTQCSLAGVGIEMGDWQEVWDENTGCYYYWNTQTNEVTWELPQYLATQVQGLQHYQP

# Variants of: B1
# methodNotes: abundance fitness (aPCA) (normalised: wild type 0, dead -1); higher = more abundant; growth selection in yeast, the domain comes from the species named
# appliedConditions: Homo sapiens
Known abundance fitness of a selection of variants

mutationLabel	abundance fitness
N40G	-0.037
W35E	0.328
T39I	-0.354
P47G	-1.04
G13M	-0.158
Y49P	-0.165
Q38N	-0.266
T43W	-0.584
G2R	-0.097
T37D	-0.171
M18W	0.025
G13P	-0.082
D6P	-0.706
Y5C	-0.592
A12E	-0.267
T7D	-0.314
Q48M	0.085
W25K	-0.014
E27P	-0.349
Y34F	-0.18
C31V	-0.129
T39H	-0.34
A51Q	-0.519
Q58G	-0.086
Q22A	-0.121
I16Y	-0.334

The reported numbers originate from the Human Domainome abundance scans (Beltran et al. 2025).
